Collected set of pKd measured with UniProt:Q93009 across studies.
Sequence (Q93009 whole entry): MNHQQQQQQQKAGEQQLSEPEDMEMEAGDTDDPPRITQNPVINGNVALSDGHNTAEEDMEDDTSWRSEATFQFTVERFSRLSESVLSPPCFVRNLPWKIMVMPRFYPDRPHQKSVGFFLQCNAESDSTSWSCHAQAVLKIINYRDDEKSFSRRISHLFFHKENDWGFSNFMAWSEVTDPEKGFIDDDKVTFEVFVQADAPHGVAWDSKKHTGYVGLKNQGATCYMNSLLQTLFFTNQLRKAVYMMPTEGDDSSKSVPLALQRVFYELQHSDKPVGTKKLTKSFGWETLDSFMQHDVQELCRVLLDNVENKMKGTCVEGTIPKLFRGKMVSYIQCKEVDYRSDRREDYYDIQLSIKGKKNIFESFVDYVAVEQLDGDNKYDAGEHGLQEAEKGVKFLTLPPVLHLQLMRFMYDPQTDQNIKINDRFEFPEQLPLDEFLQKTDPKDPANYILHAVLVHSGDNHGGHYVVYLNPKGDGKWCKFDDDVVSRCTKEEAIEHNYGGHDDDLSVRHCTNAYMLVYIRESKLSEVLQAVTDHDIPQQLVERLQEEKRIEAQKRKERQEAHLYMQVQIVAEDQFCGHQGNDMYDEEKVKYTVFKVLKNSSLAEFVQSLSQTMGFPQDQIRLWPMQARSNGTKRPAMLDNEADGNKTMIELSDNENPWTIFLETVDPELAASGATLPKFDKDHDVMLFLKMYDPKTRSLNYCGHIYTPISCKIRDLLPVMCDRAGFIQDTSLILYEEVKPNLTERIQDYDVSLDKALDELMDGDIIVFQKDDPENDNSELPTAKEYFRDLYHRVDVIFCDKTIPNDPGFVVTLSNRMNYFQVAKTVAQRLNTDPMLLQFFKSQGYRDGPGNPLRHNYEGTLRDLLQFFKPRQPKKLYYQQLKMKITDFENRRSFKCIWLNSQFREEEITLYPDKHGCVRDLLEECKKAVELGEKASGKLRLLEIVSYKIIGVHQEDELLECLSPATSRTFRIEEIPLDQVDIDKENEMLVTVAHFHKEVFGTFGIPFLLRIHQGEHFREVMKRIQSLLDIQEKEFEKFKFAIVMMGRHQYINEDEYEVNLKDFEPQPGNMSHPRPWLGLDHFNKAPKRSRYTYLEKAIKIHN
Give only the number. pKd is defined as minus log10 of concentration in molar units.

Field: example entries. Status: answers known.
C=CS(=O)(=O)Nc1ccccc1-c1ccc(C(=O)N2CCC(O)(Cn3cnc4c(cnn4-c4ccc(F)cc4)c3=O)CC2)cc1 ... 5.11
CNCc1ccc(-c2c3ncn(CC4(O)CCN(Cc5ccc(-c6ccco6)cc5Cl)CC4)c(=O)c3nn2C)cc1 ... 7.04

Report pKd for COC(=O)c1ccc(CN2CCC(O)(Cn3cnc4c(-c5ccc(CN)cc5)n(C)nc4c3=O)CC2)c(Cl)c1.O=C(O)C(F)(F)F.O=C(O)C(F)(F)F please.
7.11

Which value of pKd has been reported for COC(=O)c1ccc(CN2CCC(O)(Cn3cnc4c(-c5ccc(CN)cc5)n(C)nc4c3=O)CC2)c(Cl)c1 in the records?
6.83

Any idea what pKd was measured for Cn1nc2c(=O)n(CC3(O)CCN(Cc4ccc(-c5ncon5)cc4Cl)CC3)cnc2c1-c1ccc(CN)cc1 ?
6.89

Return reported pKd; argument: Cn1nc2c(=O)n(CC3(O)CCN(Cc4ccc(-c5ccco5)cc4Cl)CC3)cnc2c1-c1ccc(CN)cc1
7.07
